Origin of measurements: patent US20120252721A1

Experiment: in vitro
Type: cell-based, human
Conditions: human; Table 1B, cellular viability
The entries below are paired with their reported CC50.

[[record]]
compound = "COC(=O)N[C@H](C(=O)N1CCC[C@H]1c1ncc(-c2ccc(-c3csc4c(-c5cnc([C@@H]6CCCN6C(=O)[C@@H](NC(=O)OC)C(C)C)[nH]5)csc34)cc2)[nH]1)C(C)C [Compound A15]"
result_value = "10 to 75 µM"


### Prompt Name the reported CC50 value associated with the compound COC(=O)NC(C(=O)N1CCCC1c1ncc(-c2cc3sc(-c4ccc5[nH]c(C6CCCN6C(=O)C(NC(=O)OC)C(C)C)nc5c4)cc3s2)[nH]1)C(C)C (stereo in doubt) [Compound A176]
### Response 10 to 75 µM

### Prompt Quick one: CC50 of COC(=O)N[C@H](C(=O)N1CCC[C@H]1c1ncc(-c2ccc(-c3cc4sc(-c5ccc6[nH]c([C@@H]7CCCN7C(=O)[C@H](NC(=O)OC)c7ccccc7)nc6c5)cc4s3)cc2)[nH]1)C(C)C [Compound A194] ?
### Response > 75 µM

### Prompt Given COC(=O)N[C@H](C(=O)N1CCC[C@H]1c1nc2ccc(-c3csc4c(C#Cc5cnc([C@@H]6CCCN6C(=O)[C@H](NC(=O)OC)c6ccccc6)[nH]5)csc34)cc2[nH]1)C(C)C [Compound A206] , state its recorded CC50.
### Response > 75 µM

### Prompt I have this compound here, COC(=O)N[C@@H](C(=O)N1CCCC1c1nc2ccc(-c3csc4c(-c5ccc6[nH]c(C7CCCN7C(=O)[C@H](NC(=O)OC)C(C)C)nc6c5)csc34)cc2[nH]1)c1ccccc1 (some centres unmarked) [Compound A208] , and I need its recorded CC50.
### Response > 75 µM
